System: NL 4-3
testDetails: microbe, parasite or virus in culture
Type: cell-based, HIV-1
testConditions: Human immunodeficiency virus 1, AVE 1, NL 4-3, primer set 3
recordedMetric: EC50
Provide the measurement as a number trailed by its unit.

Study these solved cases before continuing.
O=c1[nH]cnc2c1ncn2[C@H]1CC[C@@H](CO)O1 [DDI, Didanosine]: 3360 nM
Nc1ccn([C@@H]2CS[C@H](CO)O2)c(=O)n1 [Compound 3TC, Lamivudine]: 820 nM

// moving on: another record for EC50
GET /values?readout=EC50&item= CC(C)(C)NC(=O)[C@@H]1C[C@@H]2CCCC[C@@H]2CN1C[C@@H](O)[C@H](Cc1ccccc1)NC(=O)[C@H](CC(N)=O)NC(=O)c1ccc2ccccc2n1 [SQV, Saquinavir]
23.3 nM
